The entries below come with measured elution rate, pH 1.2, 2 and 3 values attached.
- assay: Elution rate in aqueous solutions of various pH and physiological saline solution
- Type: physicochemical
- conditionSummary: initial pH 1.2, 2 and 3; after 15-minute stirring; 37° C.
reportedProperty: elution rate, pH 1.2, 2 and 3

- compound: "CO[C@@H]1[C@@H](O[C@@H]2O[C@H](C)[C@@H](O[C@H]3C[C@@](C)(O)[C@@H](OC(=O)CC(C)C)[C@H](C)O3)[C@H](N(C)C)[C@H]2O)[C@@H](CC=O)C[C@@H](C)[C@@H](O)/C=C/C=C/C[C@@H](C)OC(=O)C[C@H]1OC(C)=O [josamycin]"
  result: "≥ 95%"
- compound: "CCC(=O)OC1CC(=O)OC(C)C/C=C/C=C/C(O)C(C)CC(CC=O)C(OC2OC(C)C(OC3CC(C)(O)C(OC(=O)CC)C(C)O3)C(N(C)C)C2O)C1OC (stereo not shown) [midecamycin]"
  result: "≥ 95%"
- compound: "CCC(=O)O[C@H]1/C=C/C=C/C[C@@H](C)OC(=O)C[C@@H](OC(C)=O)[C@H](OC)[C@@H](O[C@@H]2O[C@H](C)[C@@H](O[C@H]3C[C@@](C)(O)[C@@H](OC(=O)CC(C)C)[C@H](C)O3)[C@H](N(C)C)[C@H]2O)[C@@H](CC=O)C[C@H]1C [9-propionyljosamycin]"
  result: "≥ 95%"
- compound: "CCCC(=O)OC1C(C)OC(OC2C(C)OC(OC3C(CC=O)CC(C)C(O)/C=C/C=C/CC(C)OC(=O)CC(O)C3OC)C(O)C2N(C)C)CC1(C)OC(=O)CC (stereo not shown) [TMS-19-Q, 3\"-propionyl leucomycin A5]"
  result: "≥ 90%"

* * *

- assay: Stability in Japan Pharmacopoeia 1st solution (pH 1.2) at 37° C., with or without stabilizer (TLC densitometry, 232 nm)
- Assay type: physicochemical
- conditionSummary: jp 1st solution, pH 1.2, 1st solution pH 1.2, 37° C., 60 minutes, no stabilizer; read-out: decomposites (balance), 60 minutes
reportedProperty: degraded at 1 h (%)

- compound: "CCC(=O)OC1CC(=O)OC(C)C/C=C/C=C/C(O)C(C)CC(CC=O)C(OC2OC(C)C(OC3CC(C)(O)C(OC(=O)CC)C(C)O3)C(N(C)C)C2O)C1OC (stereo not shown) [midecamycin]"
  quantitativeResult: 65

* * *

- assay: Stability in Japan Pharmacopoeia 1st solution (pH 1.2) at 37° C., with or without stabilizer (TLC densitometry, 232 nm)
- Type: physicochemical
- conditionSummary: 150-300 mg of tri-sodium citrate, 1st solution
reportedProperty: stability with tri-sodium citrate (in words)

- compound: "CCC(=O)OC1CC(=O)OC(C)C/C=C/C=C/C(OC(C)=O)C(C)CC(CC=O)C(OC2OC(C)C(OC3CC(C)(OC(C)=O)C(OC(=O)CC)C(C)O3)C(N(C)C)C2O)C1OC (stereo not shown)"
  result: "very much enhanced"
- compound: "CCCC(=O)OC1C(C)OC(OC2C(C)OC(OC3C(CC=O)CC(C)C(O)/C=C/C=C/CC(C)OC(=O)CC(O)C3OC)C(O)C2N(C)C)CC1(C)OC(=O)CC (stereo not shown)"
  result: "very much enhanced"
- compound: "CCC(=O)O[C@H]1/C=C/C=C/C[C@@H](C)OC(=O)C[C@@H](OC(C)=O)[C@H](OC)[C@@H](O[C@@H]2O[C@H](C)[C@@H](O[C@H]3C[C@@](C)(O)[C@@H](OC(=O)CC(C)C)[C@H](C)O3)[C@H](N(C)C)[C@H]2O)[C@@H](CC=O)C[C@H]1C"
  result: "very much enhanced"
